The origin of these recorded values is patent US6420570B1.

- Tested on: cell-free virus (HIV)
- Assay type: cell-based
- EXPERIMENTAL CONDITIONS: Table 9; 64 μM; 1 minute irradiation; HIV starting titer approximately 5.4 logs
Listing of recorded HIV Log Kill 64 μM by entry.
Respond numerically; units are log and should not be typed.

Consider the following illustrative entries.
• Cc1cc(=O)oc2c(C)c3oc(CNCCCCN)c(C)c3cc12.Cl.Cl = 3.4
• Cc1oc2c(C)c3oc(=O)cc(C)c3cc2c1CNCCCOCCCCOCCN = 2.7
• Cc1cc(=O)oc2c(C)c3oc(COCCN)c(C)c3cc12 = 3.1

Please turn your attention to the following entry.
Entry "Cc1oc2c(C)c3oc(=O)cc(C)c3cc2c1CNCCCNCCCN" ; HIV Log Kill 64 μM = 1.3

----------
Items are presented alongside their recorded HIV Log Kill 16 μM.
- Tested on: cell-free virus (HIV)
- Type: cell-based
- EXPERIMENTAL CONDITIONS: Table 9; 16 μM; 1 minute irradiation; HIV starting titer approximately 5.4 logs
Counter-ions that a name gives are not always drawn.
The answer is to be given in log; state only the numeric part.

- Cc1oc2c(C)c3oc(=O)cc(C)c3cc2c1CNCCCCN [Compound 6, Dihydrochloride]: 2.1
- Cc1cc(=O)oc2c(C)c3oc(COCCN)c(C)c3cc12: 1.0
- Cc1oc2c(C)c3oc(=O)cc(C)c3cc2c1CNCCCCCN.Cl.Cl: 2.0
- Cc1oc2c(C)c3oc(=O)cc(C)c3cc2c1CNCCCNCCCN: 0.4
- Cc1oc2c(C)c3oc(=O)cc(C)c3cc2c1CNCCCOCCCCOCCN: 0.8

Next:
# value of HIV Log Kill 16 μM, cell-free virus (HIV), item "Cc1cc(=O)oc2c(C)c3oc(CNCCCCN)c(C)c3cc12.Cl.Cl" = 1.2
